- protocol: Permeability and efflux ratio of saquinavir across Caco-2 cell monolayers
- Format: in vitro ADME
- setup_conditions: human, pH 7.4; apical to basolateral, Caco-2 monolayer; free saquinavir at 20 μM
test_readout: Papp A→B at 3 h, 20 μM (nm/s)
Report the figure in nm/s without appending any unit label.

## Task For the compound `CC(C)(C)NC(=O)[C@@H]1C[C@@H]2CCCC[C@@H]2CN1C[C@@H](O)[C@H](Cc1ccccc1)NC(=O)[C@H](CC(N)=O)NC(=O)c1ccc2ccccc2n1` , give its reported Papp A→B at 3 h, 20 μM.
## Result 8.5

Data origin: patent US20150150822A1
